The reported measurements were obtained from ChEMBL document CHEMBL5291721.

# AC50 per entry for Neuronal acetylcholine receptor subunit alpha-4 (Homo sapiens, UniProt P43681)

Please review the entries below; each comes with its answer.
                                   compound                     target_or_test_system   result
0       NC(=O)NC(=O)Cc1ccccc1 [PHENACEMIDE]  Neuronal acetylcholine receptor subunit alpha-4 (Homo sapiens, UniProt P43681)  > 10 µM
1                    S=P(N1CC1)(N1CC1)N1CC1  Neuronal acetylcholine receptor subunit alpha-4 (Homo sapiens, UniProt P43681)  > 30 µM
2  O=C(O)c1ccc(NC(=O)[C@H](Cc2ccc(O)cc2)NC(=O)c2ccccc2)cc1 [BENTIROMIDE]  Neuronal acetylcholine receptor subunit alpha-4 (Homo sapiens, UniProt P43681)  > 10 µM

Query block: Name the recorded AC50 of the compound listed here: Cc1ccccc1N1C(=O)c2cc(S(N)(=O)=O)c(Cl)cc2NC1C (centres undefined)
Result block: > 10 µM

----------
Target Or Test System: Voltage-dependent L-type calcium channel subunit alpha-1C (Rattus norvegicus); further: assay procedure not described here
Sequence (P22002 whole entry): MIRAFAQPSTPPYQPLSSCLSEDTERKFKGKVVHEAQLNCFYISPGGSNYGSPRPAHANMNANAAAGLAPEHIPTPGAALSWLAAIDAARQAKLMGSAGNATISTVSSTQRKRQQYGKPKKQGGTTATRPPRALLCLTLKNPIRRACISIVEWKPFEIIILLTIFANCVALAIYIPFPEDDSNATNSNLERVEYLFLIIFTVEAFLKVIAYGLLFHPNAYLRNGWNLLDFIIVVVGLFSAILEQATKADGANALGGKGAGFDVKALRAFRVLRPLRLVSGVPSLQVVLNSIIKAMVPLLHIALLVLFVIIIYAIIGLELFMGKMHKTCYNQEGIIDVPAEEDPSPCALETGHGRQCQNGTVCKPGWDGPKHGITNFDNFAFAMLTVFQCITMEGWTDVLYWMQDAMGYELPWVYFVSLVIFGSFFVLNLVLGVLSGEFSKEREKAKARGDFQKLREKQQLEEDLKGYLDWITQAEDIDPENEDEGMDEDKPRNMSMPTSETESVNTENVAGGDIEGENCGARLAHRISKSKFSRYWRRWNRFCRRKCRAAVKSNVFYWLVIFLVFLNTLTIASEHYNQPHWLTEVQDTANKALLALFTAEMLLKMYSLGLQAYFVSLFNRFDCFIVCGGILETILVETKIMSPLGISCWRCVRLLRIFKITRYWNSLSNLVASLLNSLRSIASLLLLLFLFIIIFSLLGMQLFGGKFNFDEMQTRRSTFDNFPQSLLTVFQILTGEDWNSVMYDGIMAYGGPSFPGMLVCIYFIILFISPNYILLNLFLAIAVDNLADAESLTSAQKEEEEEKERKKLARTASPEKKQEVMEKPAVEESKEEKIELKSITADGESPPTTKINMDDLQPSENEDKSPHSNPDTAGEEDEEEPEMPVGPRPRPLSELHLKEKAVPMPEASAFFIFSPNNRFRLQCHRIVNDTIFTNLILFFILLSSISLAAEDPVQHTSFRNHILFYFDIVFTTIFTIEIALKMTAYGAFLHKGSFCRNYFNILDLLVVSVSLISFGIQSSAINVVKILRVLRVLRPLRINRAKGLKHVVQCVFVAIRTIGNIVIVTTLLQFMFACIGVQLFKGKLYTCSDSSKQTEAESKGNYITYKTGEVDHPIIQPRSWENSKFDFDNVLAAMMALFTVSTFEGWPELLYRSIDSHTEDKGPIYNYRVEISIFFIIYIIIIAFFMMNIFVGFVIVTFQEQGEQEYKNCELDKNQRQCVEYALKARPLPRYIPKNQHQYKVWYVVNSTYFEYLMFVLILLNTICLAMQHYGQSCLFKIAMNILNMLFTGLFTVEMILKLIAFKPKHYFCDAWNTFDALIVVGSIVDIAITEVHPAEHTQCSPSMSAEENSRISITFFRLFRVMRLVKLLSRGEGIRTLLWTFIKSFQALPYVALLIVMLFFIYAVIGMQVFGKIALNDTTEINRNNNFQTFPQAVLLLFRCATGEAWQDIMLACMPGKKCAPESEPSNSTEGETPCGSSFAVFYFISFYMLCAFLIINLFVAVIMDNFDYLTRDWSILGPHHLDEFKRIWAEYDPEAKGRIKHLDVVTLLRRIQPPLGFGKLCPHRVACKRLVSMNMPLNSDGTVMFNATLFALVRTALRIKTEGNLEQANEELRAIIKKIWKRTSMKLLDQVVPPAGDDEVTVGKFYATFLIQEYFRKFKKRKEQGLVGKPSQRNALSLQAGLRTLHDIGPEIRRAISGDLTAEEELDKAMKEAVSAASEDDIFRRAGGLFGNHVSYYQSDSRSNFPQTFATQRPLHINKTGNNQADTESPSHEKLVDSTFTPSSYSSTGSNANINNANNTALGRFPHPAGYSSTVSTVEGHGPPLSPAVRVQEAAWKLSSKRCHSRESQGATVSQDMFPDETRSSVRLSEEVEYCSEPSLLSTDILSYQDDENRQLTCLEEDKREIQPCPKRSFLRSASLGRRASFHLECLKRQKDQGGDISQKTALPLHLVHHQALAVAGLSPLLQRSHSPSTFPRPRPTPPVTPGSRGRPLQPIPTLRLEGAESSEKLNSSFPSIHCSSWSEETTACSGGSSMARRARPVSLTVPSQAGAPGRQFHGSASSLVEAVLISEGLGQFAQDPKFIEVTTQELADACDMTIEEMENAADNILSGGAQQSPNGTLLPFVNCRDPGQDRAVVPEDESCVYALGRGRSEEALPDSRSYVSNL
Assay type: functional
Attribute Measured: AC50

Please review the entries below; each comes with its answer.
>>> print(df.to_string())
                                 compound  attribute_measured   result
0  CNCCc1ccc(OC(=O)C(C)C)c(OC(=O)C(C)C)c1                AC50    18 µM
1          O=C(O)Cc1ccccc1Oc1ccc(Cl)cc1Cl                AC50  > 10 µM

Please supply AC50 for each of the following items, keeping them in order.
1. CCOC(=O)C1=C(C)NC(C)=C(C(=O)OCC)C1c1ccccc1/C=C/C(=O)OC(C)(C)C
2. CC(O)(CS(=O)(=O)c1ccc(F)cc1)C(=O)Nc1ccc(C#N)c(C(F)(F)F)c1 (centres undefined) [BICALUTAMIDE]
3. CC(C(=O)O)c1ccc2oc(-c3ccc(Cl)cc3)nc2c1 (centres undefined)
4. CCOC(=O)c1ncn2c1CN(C)C(=O)c1cc(F)ccc1-2
5. CC(=O)c1ccc(S(=O)(=O)NC(=O)NC2CCCCC2)cc1 [ACETOHEXAMIDE]
6. CCCC(C)(COC(N)=O)COC(N)=O [MEPROBAMATE]

Result block:
0.32 µM
> 10 µM
> 30 µM
> 30 µM
> 10 µM
> 10 µM

Please supply AC50 for each of the following items, keeping them in order.
1. O=C1c2ccccc2C(=O)C1c1ccccc1
2. O=C(CCCN1CCC(O)(c2ccc(Br)cc2)CC1)c1ccc(F)cc1
3. CCOC(=O)C(C)(C)Oc1ccc(Cl)cc1 [CLOFIBRATE]
4. CC(C)(C)NCC(O)c1ccccc1Cl (centres undefined)
5. C[C@]12C=CC(=O)C=C1CC[C@@H]1[C@@H]2CC[C@]2(C)OC(=O)CC[C@@H]12
6. COc1ccc([C@@H]2CC(=O)c3c(O)cc(O)cc3O2)cc1O

Result block:
1. > 10 µM
2. > 30 µM
3. > 10 µM
4. > 30 µM
5. > 10 µM
6. > 10 µM

----------
Target Or Test System: Neuronal acetylcholine receptor subunit alpha-4 (Homo sapiens, UniProt P43681); further: assay procedure not described here
Sequence (P43681 whole entry): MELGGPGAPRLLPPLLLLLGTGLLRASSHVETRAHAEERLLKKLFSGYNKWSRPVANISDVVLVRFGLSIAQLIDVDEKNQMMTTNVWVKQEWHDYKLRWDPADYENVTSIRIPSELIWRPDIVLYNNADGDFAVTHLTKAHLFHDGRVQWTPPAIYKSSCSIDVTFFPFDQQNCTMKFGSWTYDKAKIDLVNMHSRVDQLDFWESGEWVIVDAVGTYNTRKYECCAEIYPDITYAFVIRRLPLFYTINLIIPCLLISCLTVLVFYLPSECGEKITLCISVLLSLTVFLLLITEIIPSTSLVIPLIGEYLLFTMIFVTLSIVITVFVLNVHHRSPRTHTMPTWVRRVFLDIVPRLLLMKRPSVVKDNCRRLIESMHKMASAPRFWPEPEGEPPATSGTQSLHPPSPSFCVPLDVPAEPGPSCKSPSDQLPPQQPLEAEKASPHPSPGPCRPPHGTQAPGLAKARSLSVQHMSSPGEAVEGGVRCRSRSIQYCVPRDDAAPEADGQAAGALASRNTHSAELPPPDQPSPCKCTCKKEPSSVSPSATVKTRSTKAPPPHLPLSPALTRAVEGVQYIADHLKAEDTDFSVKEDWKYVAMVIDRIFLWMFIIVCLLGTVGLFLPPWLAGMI
Hi there, I'd appreciate the recorded AC50 for every entry that follows.

Please review the entries below; each comes with its answer.
>>> print(df.to_string())
                                   compound   result
0  COc1cc(C(C)=O)ccc1OCCCN1CCC(c2noc3cc(F)ccc23)CC1 [ILOPERIDONE]     2 µM
1  CC(C)[C@H](N)C(=O)OCCOCn1cnc2c(=O)[nH]c(N)nc21 [VALACYCLOVIR]  > 10 µM

Query block: Name the recorded AC50 of the compound listed here: CC(=O)c1ccc(S(=O)(=O)NC(=O)NC2CCCCC2)cc1 [ACETOHEXAMIDE]
Result block: > 10 µM

----------
Target Or Test System: 3',5'-cyclic-AMP phosphodiesterase 4D (Homo sapiens); further: assay procedure not described here
Sequence (Q08499 whole entry): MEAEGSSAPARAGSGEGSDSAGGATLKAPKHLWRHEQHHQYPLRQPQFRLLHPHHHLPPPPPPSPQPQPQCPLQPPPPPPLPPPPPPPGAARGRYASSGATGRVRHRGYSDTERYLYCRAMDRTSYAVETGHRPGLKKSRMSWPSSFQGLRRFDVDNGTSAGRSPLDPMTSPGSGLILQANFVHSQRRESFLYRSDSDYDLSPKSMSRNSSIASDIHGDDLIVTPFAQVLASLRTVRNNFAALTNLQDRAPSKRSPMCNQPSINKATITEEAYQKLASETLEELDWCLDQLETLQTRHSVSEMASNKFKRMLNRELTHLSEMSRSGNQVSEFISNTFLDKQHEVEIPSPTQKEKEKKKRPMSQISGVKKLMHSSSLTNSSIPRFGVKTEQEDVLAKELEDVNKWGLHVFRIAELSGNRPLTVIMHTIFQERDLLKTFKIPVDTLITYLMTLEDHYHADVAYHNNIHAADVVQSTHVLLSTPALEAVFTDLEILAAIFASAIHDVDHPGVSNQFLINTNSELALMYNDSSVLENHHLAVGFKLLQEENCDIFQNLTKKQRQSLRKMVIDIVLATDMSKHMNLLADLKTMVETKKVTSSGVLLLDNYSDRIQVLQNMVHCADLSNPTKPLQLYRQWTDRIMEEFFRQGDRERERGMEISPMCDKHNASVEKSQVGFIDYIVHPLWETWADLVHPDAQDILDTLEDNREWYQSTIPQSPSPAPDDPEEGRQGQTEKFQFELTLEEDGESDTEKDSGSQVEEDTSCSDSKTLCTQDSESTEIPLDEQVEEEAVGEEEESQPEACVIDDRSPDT
Type: functional
Attribute Measured: AC50

In [3]: df
Out[3]:
                                   compound  attribute_measured   result
0  O=C1Cc2cc(CCN3CCN(c4nsc5ccccc45)CC3)c(Cl)cc2N1                AC50  > 30 µM

Please supply AC50 for each of the following items, keeping them in order.
1. CC(C)NC(=N)NC(=N)Nc1ccc(Cl)c(Cl)c1
2. CN[C@]1(c2ccccc2Cl)CCCCC1=O
3. CN1Cc2c(N)cccc2C(c2ccccc2)C1 (stereo not given)
4. Oc1ccc(CCNCCCCCCNCCc2ccccc2)cc1O

Result block:
1. > 30 µM
2. > 30 µM
3. > 30 µM
4. 29 µM

----------
Hi there, I'd appreciate the recorded AC50 for every entry that follows.
Target Or Test System: Voltage-gated inwardly rectifying potassium channel KCNH2 (Homo sapiens); further: assay procedure not described here
Sequence (Q12809 whole entry): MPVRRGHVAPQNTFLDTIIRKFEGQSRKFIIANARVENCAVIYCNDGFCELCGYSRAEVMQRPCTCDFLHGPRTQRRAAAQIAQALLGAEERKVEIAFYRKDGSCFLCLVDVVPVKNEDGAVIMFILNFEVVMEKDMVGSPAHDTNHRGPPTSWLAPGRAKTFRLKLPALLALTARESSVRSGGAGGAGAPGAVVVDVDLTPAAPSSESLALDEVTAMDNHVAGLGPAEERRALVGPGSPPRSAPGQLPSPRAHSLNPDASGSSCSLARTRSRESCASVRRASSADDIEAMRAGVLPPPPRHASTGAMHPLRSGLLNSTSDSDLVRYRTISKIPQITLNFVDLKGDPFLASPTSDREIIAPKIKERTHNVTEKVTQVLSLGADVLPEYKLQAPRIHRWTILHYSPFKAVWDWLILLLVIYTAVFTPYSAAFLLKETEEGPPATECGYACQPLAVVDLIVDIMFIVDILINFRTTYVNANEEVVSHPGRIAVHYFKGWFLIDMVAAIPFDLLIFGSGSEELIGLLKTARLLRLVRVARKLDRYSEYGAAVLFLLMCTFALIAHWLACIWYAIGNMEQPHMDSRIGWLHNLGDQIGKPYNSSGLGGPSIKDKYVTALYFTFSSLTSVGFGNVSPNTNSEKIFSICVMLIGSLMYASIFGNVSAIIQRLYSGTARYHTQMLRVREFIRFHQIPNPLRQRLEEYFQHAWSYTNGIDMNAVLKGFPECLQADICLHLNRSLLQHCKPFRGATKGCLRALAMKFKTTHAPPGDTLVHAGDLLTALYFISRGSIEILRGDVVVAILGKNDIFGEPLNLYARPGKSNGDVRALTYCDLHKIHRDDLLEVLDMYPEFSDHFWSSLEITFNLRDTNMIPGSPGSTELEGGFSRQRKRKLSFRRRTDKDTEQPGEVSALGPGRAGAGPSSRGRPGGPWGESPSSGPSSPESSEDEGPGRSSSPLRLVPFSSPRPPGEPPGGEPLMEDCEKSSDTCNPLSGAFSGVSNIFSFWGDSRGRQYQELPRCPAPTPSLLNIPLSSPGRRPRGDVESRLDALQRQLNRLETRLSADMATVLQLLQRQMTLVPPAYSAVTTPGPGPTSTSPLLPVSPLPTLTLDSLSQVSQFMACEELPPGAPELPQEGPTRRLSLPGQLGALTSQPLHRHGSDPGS
Format: functional

Please review the entries below; each comes with its answer.
Molecule	AC50
CC(C(=O)O)c1cccc(Oc2ccccc2)c1 (configuration not stated)	> 30 µM
O=C(O)CCNC(=O)c1ccc(/N=N/c2ccc(O)c(C(=O)O)c2)cc1 [BALSALAZIDE]	> 30 µM
S=P(N1CC1)(N1CC1)N1CC1	9.6 µM
C[C@@H]1C[C@H]2[C@@H]3C[C@H](F)C4=CC(=O)C=C[C@]4(C)[C@@]3(F)[C@@H](O)C[C@]2(C)[C@@]1(OC(=O)c1ccco1)C(=O)SCF [FLUTICASONE FUROATE]	> 30 µM
OC[C@H]1O[C@@H](Oc2cc(O)cc(/C=C/c3ccc(O)cc3)c2)[C@H](O)[C@@H](O)[C@@H]1O	> 30 µM
Clc1ccc(CCC(Cn2ccnc2)Sc2c(Cl)cccc2Cl)cc1 (configuration not stated)	5.9 µM

Query block: Name the recorded AC50 of the molecule listed here: CC(=O)Nc1ccc(CC(=O)O)cc1
Result block: > 30 µM

----------
Target Or Test System: Histamine H1 receptor (Homo sapiens); further: assay procedure not described here
Attribute Measured: AC50

>>> print(df.to_string())
                                   molecule  attribute_measured   result
0  CC(C(=O)O)c1ccc2c(c1)CC(=O)c1ccccc1S2 (stereo unspecified)                AC50  > 30 µM
1  OC[C@H]1O[C@@H](Oc2cc(O)cc(/C=C/c3ccc(O)cc3)c2)[C@H](O)[C@@H](O)[C@@H]1O                AC50  > 30 µM
2  O=C1OC(OC(=O)c2cccnc2Nc2cccc(C(F)(F)F)c2)c2ccccc21 (stereo unspecified) [TALNIFLUMATE]                AC50  > 30 µM

Please supply AC50 for each of the following items, keeping them in order.
1. O=C(O)c1ccc(NC(=O)[C@H](Cc2ccc(O)cc2)NC(=O)c2ccccc2)cc1 [BENTIROMIDE]
2. Cn1c(=O)c2c(ncn2CCOC(=O)C(C)(C)Oc2ccc(Cl)cc2)n(C)c1=O [THEOFIBRATE]

Result block:
["> 10 µM", "> 30 µM"]

Query block: Name the recorded AC50 of the molecule listed here: CCOc1cc([C@@H](CS(C)(=O)=O)N2C(=O)c3cccc(NC(C)=O)c3C2=O)ccc1OC
Result block: > 30 µM

----------
# AC50 per entry for Alpha-2B adrenergic receptor (Homo sapiens, UniProt P18089)

In [3]: df
Out[3]:
                                   compound    result
0   CCCC(C)(COC(N)=O)COC(N)=O [MEPROBAMATE]   > 10 µM
1  Cc1nnc(SCC2=C(C(=O)O)N3C(=O)[C@@H](NC(=O)Cn4cnnn4)[C@H]3SC2)s1  > 300 µM

Please supply AC50 for each of the following items, keeping them in order.
1. CC(C)(O/N=C(\C(=O)N[C@@H]1C(=O)N2C(C(=O)[O-])=C(C[n+]3ccccc3)CS[C@H]12)c1csc(N)n1)C(=O)O
2. Clc1ccc(Cn2c(CN3CCCC3)nc3ccccc32)cc1
3. CCCCOc1ccc(C(=O)CCN2CCCCC2)cc1
4. CCCN1CCCC[C@H]1C(=O)Nc1c(C)cccc1C

Result block:
1. > 300 µM
2. 13 µM
3. > 10 µM
4. > 30 µM

----------
Target Or Test System: Melanocortin receptor 3 (Homo sapiens); further: assay procedure not described here
Sequence (P41968 whole entry): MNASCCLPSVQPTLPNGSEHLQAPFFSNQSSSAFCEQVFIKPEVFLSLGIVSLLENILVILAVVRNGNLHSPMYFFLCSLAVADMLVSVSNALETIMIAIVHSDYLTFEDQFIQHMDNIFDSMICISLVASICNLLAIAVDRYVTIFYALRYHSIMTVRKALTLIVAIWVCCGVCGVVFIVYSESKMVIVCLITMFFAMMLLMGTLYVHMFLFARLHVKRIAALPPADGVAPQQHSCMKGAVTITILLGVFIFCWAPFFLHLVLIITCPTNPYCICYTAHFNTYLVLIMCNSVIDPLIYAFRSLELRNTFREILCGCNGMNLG
Attribute Measured: AC50

Please review the entries below; each comes with its answer.
Molecule	AC50
CCC(NC(C)C)C(O)c1ccc(O)c2[nH]c(=O)ccc12 (stereo not given)	> 30 µM
CCCN1CC(NS(=O)(=O)N(CC)CC)CC2Cc3c(O)cccc3CC21 (stereo not given) [QUINAGOLIDE]	> 30 µM
CCOC(=O)c1ncn2c1CN(C)C(=O)c1cc(F)ccc1-2	> 30 µM
C=CCN1CCc2nc(N)sc2CC1 [TALIPEXOLE]	> 30 µM
O=C(O)Cc1ccccc1Nc1c(Cl)cccc1Cl	> 30 µM
C[C@@H]1C[C@H]2[C@@H]3C[C@H](F)C4=CC(=O)C=C[C@]4(C)[C@@]3(F)[C@@H](O)C[C@]2(C)[C@@]1(OC(=O)c1ccco1)C(=O)SCF [FLUTICASONE FUROATE]	> 10 µM
CCCN1CCCC[C@H]1C(=O)Nc1c(C)cccc1C	> 30 µM
NNC(=O)c1ccncc1	> 30 µM
C[N+](C)(C)CCOP(=O)([O-])OC[C@H](O)CO	> 30 µM
Cc1ccccc1-n1c(CF)nc2ccc(N)cc2c1=O	> 30 µM

Please supply AC50 for each of the following items, keeping them in order.
1. CC(C)(C)NCC(O)c1ccccc1Cl (stereo not given)
2. CC1=C(C(=O)OC(C)C)C(c2cccc([N+](=O)[O-])c2)C(C(=O)OC2CN(C(c3ccccc3)c3ccccc3)C2)=C(N)N1 (stereo not given)
3. Cc1ccccc1N1C(=O)c2cc(S(N)(=O)=O)c(Cl)cc2NC1C (stereo not given)
4. Cn1cc(C(=O)[C@@H]2CCc3nc[nH]c3C2)c2ccccc21
5. CCCNC(=O)NS(=O)(=O)c1ccc(Cl)cc1 [CHLORPROPAMIDE]
6. Cc1cc(C2CCCCC2)n(O)c(=O)c1

Result block:
1: > 30 µM; 2: > 30 µM; 3: > 10 µM; 4: > 30 µM; 5: > 30 µM; 6: > 30 µM
